Target: PAF receptor (Oryctolagus cuniculus)
Construct: Cell membrane fraction of rabbit platelets was prepared; from tissue; host or cells: rabbit platelets (cell membrane fraction)
Sequence (G1TEI7 1-342): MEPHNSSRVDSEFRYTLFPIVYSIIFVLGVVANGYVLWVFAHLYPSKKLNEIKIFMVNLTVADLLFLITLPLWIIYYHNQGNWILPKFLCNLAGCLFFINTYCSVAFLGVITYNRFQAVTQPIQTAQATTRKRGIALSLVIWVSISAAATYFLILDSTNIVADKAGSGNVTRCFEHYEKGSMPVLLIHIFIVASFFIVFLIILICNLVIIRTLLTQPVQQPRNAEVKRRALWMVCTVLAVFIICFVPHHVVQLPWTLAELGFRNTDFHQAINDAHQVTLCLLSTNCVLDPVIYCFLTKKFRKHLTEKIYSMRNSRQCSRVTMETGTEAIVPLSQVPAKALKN
Test: Binding test using [3H]-PAF (PAF receptor binding test)
Set-up: species or system rabbit
Settings: rabbit platelet membrane fraction, [3H]-PAF 0.4 nM, 25°C, 60 minutes; read-out: Receptor Binding Inhibition IC50 (converted)
Counter-ions that a name gives are not always drawn.
Below, each entry is listed with its recorded IC50.

[
  {
    "compound": "Cc1nnc2n1-c1ccccc1N(CCCN1CCC(C(O)(c3ccccc3)c3cccs3)CC1)C2 (stereo not shown)",
    "IC50": "340 nM"
  },
  {
    "compound": "Cc1nnc2n(CCCN3CCC(c4c[nH]c5ccc(F)cc45)CC3)c3ccccc3n12",
    "IC50": "557 nM"
  },
  {
    "compound": "COc1ccc(C(=C2CCN(CCCN3Cc4nnc(C)n4-c4ccccc43)CC2)c2ccccc2)cc1OC",
    "IC50": "162 nM"
  },
  {
    "compound": "Cc1nnc2n1-c1ccccc1N(CCCN1CCC(=C(c3ccco3)c3ccco3)CC1)C2",
    "IC50": "351 nM"
  },
  {
    "compound": "Cc1nnc2n1-c1ccccc1N(CCCN1CCC(=C(c3ccccc3)c3ccc(Cl)cc3)CC1)C2",
    "IC50": "206 nM"
  },
  {
    "compound": "COc1ccc(C(O)(c2ccc(OC)c(OC)c2)C2CCN(CCCN3Cc4nnc(C)n4-c4ccccc43)CC2)cc1OC",
    "IC50": "1170 nM"
  },
  {
    "compound": "Cc1nnc2n1-c1ccccc1N(CCCN1CCC(=C(c3ccccc3)c3ccc4ccccc4c3)CC1)C2",
    "IC50": "342 nM"
  },
  {
    "compound": "CCCc1nnc2n(CCCN3CCC(c4c[nH]c5ccccc45)CC3)c3ccccc3n12",
    "IC50": "1980 nM"
  },
  {
    "compound": "Cc1nnc2n1-c1ccccc1N(CCCN1CCC(=C(c3ccccc3)c3ccc(N(C)C)cc3)CC1)C2",
    "IC50": "55.9 nM"
  },
  {
    "compound": "Cc1nnc2n1-c1ccccc1N(CCCN1CCC(=C3c4ccccc4CCc4ccccc43)CC1)C2",
    "IC50": "199 nM"
  },
  {
    "compound": "Cc1nnc2n1-c1ccccc1N(CCCN1CCN(C(c3ccccc3)c3ccc(Cl)cc3)CC1)C2 (stereo not shown)",
    "IC50": "702 nM"
  },
  {
    "compound": "Cc1nnc2n1-c1ccccc1N(CCCN1CCC(=C3c4ccccc4COc4ccccc43)CC1)C2",
    "IC50": "675 nM"
  },
  {
    "compound": "COc1ccccc1C(=C1CCN(CCCN2Cc3nnc(C)n3-c3ccccc32)CC1)c1ccccc1OC",
    "IC50": "411 nM"
  },
  {
    "compound": "Cc1nnc2n1-c1ccccc1N(CCCN1CCC(=C(c3ccc(Cl)cc3)c3ccc(Cl)cc3)CC1)C2",
    "IC50": "152 nM"
  },
  {
    "compound": "COc1cccc(C(=C2CCN(CCCN3Cc4nnc(C)n4-c4ccccc43)CC2)c2cccc(OC)c2)c1",
    "IC50": "74.7 nM"
  },
  {
    "compound": "Cc1nnc2n1-c1ccccc1N(CCCN1CCC(C(O)(c3ccc(F)cc3)c3ccc(F)cc3)CC1)C2",
    "IC50": "603 nM"
  },
  {
    "compound": "Cc1nnc2n1-c1ccccc1N(CCN1CCN(C(c3ccccc3)c3ccccc3)CC1)C2",
    "IC50": "6460 nM"
  },
  {
    "compound": "Cc1nnc2n1-c1ccccc1N(CCCN1CCC(=C(c3ccccc3)c3ccccc3)C1)C2",
    "IC50": "238 nM"
  },
  {
    "compound": "Cc1ccc2[nH]cc(C3CCN(CCCN4Cc5nnc(C)n5-c5ccccc54)CC3)c2c1",
    "IC50": "636 nM"
  },
  {
    "compound": "Cc1nnc2n(CCCN3CCC(c4c[nH]c5ccc(Cl)cc45)CC3)c3ccccc3n12",
    "IC50": "246 nM"
  },
  {
    "compound": "Cc1nnc2n1-c1ccc(Cl)cc1N(CCCN1CCC(c3c[nH]c4ccccc34)CC1)C2",
    "IC50": "10400 nM"
  },
  {
    "compound": "Cc1nnc2n1-c1ccccc1N(CCCN1CCN(C(c3ccccc3)c3ccccc3)CC1)C2",
    "IC50": "1670 nM"
  },
  {
    "compound": "COc1ccc(C(=C2CCN(CCCN3Cc4nnc(C)n4-c4ccccc43)CC2)c2ccc(OC)cc2)cc1",
    "IC50": "54.1 nM"
  },
  {
    "compound": "Cc1nnc2n1-c1ccccc1N(CCCN1CCC(C(O)(c3ccccc3)c3ccccc3)CC1)C2",
    "IC50": "357 nM"
  },
  {
    "compound": "Cc1nnc2n1-c1ccccc1N(CCCN1CCC(=C(c3ccc(F)cc3)c3ccc(F)cc3)CC1)C2",
    "IC50": "190 nM"
  },
  {
    "compound": "COc1ccccc1N1CCN(CCCN2Cc3nnc(C)n3-c3ccccc32)CC1",
    "IC50": "7170 nM"
  },
  {
    "compound": "COc1ccc2[nH]cc(C3CCN(CCCN4Cc5nnc(C)n5-c5ccccc54)CC3)c2c1",
    "IC50": "1160 nM"
  },
  {
    "compound": "Cc1nnc2n(CCCN3CCN(C(c4ccccc4)c4ccccc4)CC3)c3ccccc3n12 [Compound 189, dihydrochloride]",
    "IC50": "260 nM"
  },
  {
    "compound": "Cc1nnc2n1-c1ccccc1N(CCCN1CCC(c3c[nH]c4ccc(Cl)cc34)CC1)C2",
    "IC50": "803 nM"
  },
  {
    "compound": "Cc1ccc2[nH]cc(C3CCN(CCCn4c5ccccc5n5c(C)nnc45)CC3)c2c1",
    "IC50": "75 nM"
  },
  {
    "compound": "CCCc1nnc2n1-c1ccccc1N(CCCN1CCC(c3c[nH]c4ccccc34)CC1)C2",
    "IC50": "3300 nM"
  }
]

These entries and their values trace back to patent EP0536419B1.
